Numbers sourced from paper PMC9167512.

Substrate: Cc1ccc(O)c(O)c1
Assay Remarks: purified protein
Type: biochemical, Tetranychus urticae
Test Parameters: 0.1 M PBS pH 7.5, 25 °C, O2 co-substrate (air), Fe enzyme, kcat corrected for iron content
Parameter: Km. Scope: all listed entries.
# output: bare number, implied unit µM

INSERT INTO measurements (protein, measure, assay_value) VALUES
  ('TuDOG1 (Tetranychus urticae) (protein, signal peptide removed, N-terminal 6xHis kept, pJExpress 411, E. coli BL21(DE3), codon optimized (ATUM), 25-37 kDa) DVHRRGKFLPHDRTVINCASLNRKAHQHSSVLAPFTTEGPFFLPDDLKRSDITDGQKGIPLELTIKLTNAKDCTPISNFFIHAWQTNATGVYSGIDEDTAPLSGFRPTPVNRDRSLRGYQETDANGEVKFLTILPGWYSGRAIHIHIEVYAKDITDENKITYIGQFYFEHDFPLKLRKIYPYSTNTQRIIFNEQDYYYVHDHGDETTLDLKHNGAKFSSYATVAIDPTVTVHVQ', 'Km', 15.1);

Provide only the value of recorded Km for TuDOG16 (Tetranychus urticae) (protein, signal peptide removed, N-terminal 6xHis kept, pJExpress 411, E. coli BL21(DE3), codon optimized (ATUM), 25-37 kDa) HSERPGKFLEHDRSIVNCARYKREANQHTCVLAPFATEGPYFLADDLERSDITDGQTGVNLDLNLKLTNAKDCSPLSGYFVHIWNANALGHYSGVQEFNKFPKQTFRPKPIYDTRWLRGYQVTNEDGEVNFKTIVPGWYYGRCLHIHVEVYSKNTTDTNAITYIGQLYFKRELPVQLKLVEPYSSNQNELKFNEQDKVFNGMHGNDTITELVFEENNAKTSFILALDPTVTTLTNGTVVN
52.4
